assay: gradient 5% acetonitrile 3 min, to 50% in 2 min, to 85% in 15 min, held 3 min, 100 µL/min; details: column: Zorbax Extend-C18 2.1 x 50 mm; eluents: water / acetonitrile, 0.1% formic acid
# RP-LC retention time listing for each entry below
A number alone suffices; assume s.

CCOC(=O)C1=C(CN2CCC(N3CCCCC3)CC2)NC(=O)NC1c1ccc(OC(C)C)cc1 (stereo not given) :: 605
CN(c1nc2ccccc2s1)C1CCN(C[C@H](O)COc2ccc(F)c(F)c2)CC1 :: 777
CCc1cccc(C)c1NC(=O)Cn1c(=O)n(-c2ccccc2)c(=O)c2c1cc(C)n2C :: 833

Q. Param item = CCCN(C(=O)CC)c1nc(-c2cccc(Cl)c2)cs1 ; retrieve measured RP-LC retention time.
A. 1320

Q. Param item = CCN1c2ccccc2C(=O)NC12CCN(C(=O)c1ccc3c(c1)OCO3)CC2 ; retrieve measured RP-LC retention time.
A. 740

====

test: gradient 5% acetonitrile 3 min, to 50% in 2 min, to 85% in 15 min, held 3 min, 100 µL/min; conditions: column: Zorbax Extend-C18 2.1 x 50 mm; eluents: water / acetonitrile, 0.1% formic acid
endpoint label: RP-LC retention time (s)
A number alone suffices; assume s.

Q. Param item = Cn1nc(-c2nc(C3CC3)no2)c2c1CCN(C(=O)c1cc(F)ccc1F)C2 ; retrieve measured RP-LC retention time.
A. 860

Q. Param item = CCCNC(=O)C1CCCN(C(=O)c2cc(C)cc(C)c2)C1 (stereo not drawn) ; retrieve measured RP-LC retention time.
A. 746

Q. Param item = COC(=O)c1ccc2c(=O)n(-c3cccc(OC)c3)c(N3CCSC3)nc2c1 ; retrieve measured RP-LC retention time.
A. 1020

Q. Param item = CCc1ccc(NC(=O)C2CCN(S(C)(=O)=O)c3cc(Cl)ccc3O2)cc1 (stereo not drawn) ; retrieve measured RP-LC retention time.
A. 944

Q. Param item = COc1ccc(NC(=O)Cn2cnc3nc(N4CCC(C)CC4)ncc3c2=O)cc1Cl ; retrieve measured RP-LC retention time.
A. 834

Q. Param item = NC(=O)C1CCN(C(=O)c2c[nH]c3c(C(F)(F)F)cccc3c2=O)CC1 ; retrieve measured RP-LC retention time.
A. 572

Q. Param item = Cc1nnc(C2CCCCCN2S(=O)(=O)c2ccc(F)c(C)c2)o1 (stereo not drawn) ; retrieve measured RP-LC retention time.
A. 893

Q. Param item = CCNC(=O)c1nnc(-c2ccc(S(=O)(=O)N3CCC(C)CC3)cc2)o1 ; retrieve measured RP-LC retention time.
A. 875

Q. Param item = CCN1C(=O)COc2cc(-c3noc(C(=O)NCCC4=CCCCC4)n3)ccc21 ; retrieve measured RP-LC retention time.
A. 1120

Q. Param item = O=C(Nc1ccc(F)cc1F)c1cnc(-c2ccccc2)nc1-c1ccncc1 ; retrieve measured RP-LC retention time.
A. 874

Q. Param item = Cc1nn(C(C)C(=O)NCCc2ccccc2)c(=O)c2c(-n3cccc3)n(-c3ccccc3)nc12 (stereo not drawn) ; retrieve measured RP-LC retention time.
A. 1070

Q. Param item = CCCN1C(=O)c2c(C(=O)NCc3ccccc3F)ncn2CC1(C)C(=O)NCc1ccccc1 (stereo not drawn) ; retrieve measured RP-LC retention time.
A. 812

Q. Param item = Cc1ccc(-c2ccc(S(=O)(=O)N3CCCC3)cc2)cc1 ; retrieve measured RP-LC retention time.
A. 1070

Q. Param item = Cc1cc2nnc(SCC(=O)Nc3nc(-c4ccccc4)cs3)n2c2ccccc12 ; retrieve measured RP-LC retention time.
A. 964

Q. Param item = Cc1ccc2nc(-c3cc(Br)ccc3F)c(Nc3ccc4c(c3)OCO4)n2c1 ; retrieve measured RP-LC retention time.
A. 762

Q. Param item = CN(C)c1ccc(CNC(=O)c2cc3n(n2)CC(C)(C(=O)NC2CCCCCC2)N(C)C3=O)cc1 (stereo not drawn) ; retrieve measured RP-LC retention time.
A. 649

Q. Param item = CN1c2ccccc2C(=O)NC12CCN(C(=O)Nc1ccc(F)cc1)CC2 ; retrieve measured RP-LC retention time.
A. 729

Q. Param item = CSc1cccc(NC(=O)Cn2ccn3nc(-c4ccc(F)cc4)c(CO)c3c2=O)c1 ; retrieve measured RP-LC retention time.
A. 877

Q. Param item = COc1ccc(-c2ncccc2CNS(=O)(=O)Cc2cc(F)cc(F)c2)cc1 ; retrieve measured RP-LC retention time.
A. 694

Q. Param item = CC(C)(C)c1nnc(NC(=O)C2CC(=O)N(CCc3c[nH]c4ccc(Cl)cc34)C2)s1 (stereo not drawn) ; retrieve measured RP-LC retention time.
A. 831

Q. Param item = COc1ccc(N2CCN(C(=O)Cn3ccc4c(SCc5ccccc5)nccc43)CC2)cc1 ; retrieve measured RP-LC retention time.
A. 743

Q. Param item = CCN1C(=O)Cc2ccccc2C1C(=O)NCc1ccc(Br)cc1 (stereo not drawn) ; retrieve measured RP-LC retention time.
A. 802

Q. Param item = Cc1cccc(Nc2c(-c3ccc(N4CCOCC4)cc3)nc3cnccn23)c1C ; retrieve measured RP-LC retention time.
A. 867

Q. Param item = CCC(C)(C)C(=O)N1CCCN(C2=NS(=O)(=O)C(c3ccc(C)cc3)=C2C)CC1 ; retrieve measured RP-LC retention time.
A. 915

Q. Param item = CCc1nc(-c2cc(S(=O)(=O)N3CCC(C(=O)NCc4ccc(C)o4)CC3)c(C)s2)no1 ; retrieve measured RP-LC retention time.
A. 969

====

test: gradient 5% acetonitrile 3 min, to 50% in 2 min, to 85% in 15 min, held 3 min, 100 µL/min; settings: column: Zorbax Extend-C18 2.1 x 50 mm; eluents: water / acetonitrile, 0.1% formic acid
Note to self: RP-LC retention time under 900 s means 1.0, ties and anything higher get 0.0.

Q. Please state whether RP-LC retention time is below 900 s for CCN1C(=O)C2CC3(CCN(C(=O)CC4CCCC4)CC3)CN2C1=O (centres undefined)
A. 1.0

Q. Please state whether RP-LC retention time is below 900 s for CCn1cnc(S(=O)(=O)N2CCCC(C(=O)Nc3ccc(-c4nc5ccccc5[nH]4)cc3)C2)c1 (centres undefined)
A. 1.0

Q. Please state whether RP-LC retention time is below 900 s for COc1ccc(NC(=O)c2cc(C(C)C)n(-c3nc4ccccc4s3)n2)cc1OC
A. 0.0

Q. Please state whether RP-LC retention time is below 900 s for CO[C@@H]1[C@@H](OC(N)=O)[C@H](O)[C@H](Oc2ccc3c(O)c(NC(=O)c4ccc(O)c(CC=C(C)C)c4)c(=O)oc3c2C)OC1(C)C
A. 0.0

Q. Please state whether RP-LC retention time is below 900 s for CCSc1nnc(NC(=O)c2cc(=O)c(OCc3ccc(F)cc3)co2)s1
A. 1.0

Q. Please state whether RP-LC retention time is below 900 s for CN(CCCNC(=O)Cn1c(=O)c2cccn2c2ccccc21)Cc1ccccc1
A. 1.0

Q. Please state whether RP-LC retention time is below 900 s for CC1CCc2onc(C(=O)N3CCN(c4ccccc4)CC3)c2C1 (centres undefined)
A. 0.0

Q. Please state whether RP-LC retention time is below 900 s for CCOc1cccc(CN2C[C@@H]3C(=O)N(CCOC)C(=O)[C@@H]3C2)c1
A. 1.0

Q. Please state whether RP-LC retention time is below 900 s for COc1ccc(Cc2nnc(C3CCN(C(=O)Cc4cccs4)CC3)s2)cc1
A. 1.0

Q. Please state whether RP-LC retention time is below 900 s for O=C(Cn1nc2nc(N3CCOCC3)ccn2c1=O)Nc1ccc(F)c(F)c1
A. 1.0

Q. Please state whether RP-LC retention time is below 900 s for Brc1ccc(C(c2nnc(-c3ccccc3)o2)N2CCN(c3ncccn3)CC2)cc1 (centres undefined)
A. 0.0

Q. Please state whether RP-LC retention time is below 900 s for Cc1ccc2c(c1)sc1nc(C)c(S(=O)(=O)Nc3ccc(Cl)cc3)c(=O)n12
A. 0.0

Q. Please state whether RP-LC retention time is below 900 s for Cc1ccc(N2CC(c3noc(-c4cccs4)n3)CC2=O)cc1 (centres undefined)
A. 0.0

Q. Please state whether RP-LC retention time is below 900 s for CC(C)(C)NC(=O)N1CCN(c2cc(-c3cccc(F)c3)ncn2)CC1
A. 1.0

Q. Please state whether RP-LC retention time is below 900 s for COc1ccc2[nH]cc(CCNC(=O)Cn3nc(C)c4c(C)onc4c3=O)c2c1
A. 1.0

Q. Please state whether RP-LC retention time is below 900 s for Cc1cccc(NC(=O)C2CC(=O)N(c3n[nH]c4cccc(F)c34)C2)c1 (centres undefined)
A. 1.0

====

test: gradient 5% acetonitrile 3 min, to 50% in 2 min, to 85% in 15 min, held 3 min, 100 µL/min; details: column: Zorbax Extend-C18 2.1 x 50 mm; eluents: water / acetonitrile, 0.1% formic acid
Note to self: RP-LC retention time under 800 s means Fulfilled, ties and anything higher get Not fulfilled.

Observe how each entry below is paired with its result.
COc1ccc(OC)c(CNC(=O)c2ccc3c(c2)N(C)C(=O)c2ccccc2O3)c1 :: Not fulfilled
COc1cccc(Nc2nnc(CC(=O)N3CCSCC3)s2)c1 :: Fulfilled
CCCCNC(=O)c1ccc(-c2nc(CCN(C)C(=O)CC)no2)cc1 :: Fulfilled

Q. Please state whether RP-LC retention time is below 800 s for CCN(CC)c1nc2cc(C(=O)NCc3ccc(C)o3)ccc2c(=O)n1-c1ccccc1
A. Not fulfilled

Q. Please state whether RP-LC retention time is below 800 s for CCc1ccc(NC(=O)N2CCCC(Cn3cnc4cccnc43)C2)cc1 (stereo unspecified)
A. Fulfilled

Q. Please state whether RP-LC retention time is below 800 s for Cc1ccc(-c2cc3n(n2)CCCN(C(=O)c2n[nH]c4ccccc24)C3)cc1
A. Not fulfilled

Q. Please state whether RP-LC retention time is below 800 s for COc1ccccc1/C=C/c1nn2c(-c3cccnc3)nnc2s1
A. Not fulfilled

Q. Please state whether RP-LC retention time is below 800 s for O=C(Cn1ncc2c(N3CCN(c4ccccn4)CC3)ncnc21)NCc1ccc(F)c(Cl)c1
A. Fulfilled

Q. Please state whether RP-LC retention time is below 800 s for CCCNc1cc(N2CCCC(CCC(=O)N3CCN(CC(C)C)CC3)C2)ncn1 (stereo unspecified)
A. Fulfilled

Q. Please state whether RP-LC retention time is below 800 s for CCc1nc2cc(-c3noc(-c4cccc(N(C)C)c4)n3)ccc2o1
A. Not fulfilled
